# maps each entry to its cAMP Assay (EC-50)
Target: melanocortin-1 receptor (human, UniProt Q01726 1-317)
Sequence (Q01726 whole entry): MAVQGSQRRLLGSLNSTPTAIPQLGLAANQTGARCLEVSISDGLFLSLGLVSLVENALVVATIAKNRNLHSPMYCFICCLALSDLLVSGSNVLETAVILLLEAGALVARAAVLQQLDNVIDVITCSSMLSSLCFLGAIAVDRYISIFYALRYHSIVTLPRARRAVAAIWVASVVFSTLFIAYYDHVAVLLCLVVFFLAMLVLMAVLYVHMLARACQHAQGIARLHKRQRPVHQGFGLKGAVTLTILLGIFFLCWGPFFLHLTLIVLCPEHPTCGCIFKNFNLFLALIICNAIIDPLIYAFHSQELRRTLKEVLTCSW
Experiment: cell-based or functional assay
Bridge positions count the residues as written; N and C are the ends. Square brackets hold non-standard residues; d marks the D form. dTle = CC(C)(C)[C@@H](N)C(=O)O
Give the number; nM is assumed, so skip it.

- BINDER: "Ac-RC[dA]N[dF]RWC-NH2 (disulfide 2-8; SMILES CC(=O)N[C@@H](CCCNC(=N)N)C(=O)N[C@H]1CSSC[C@@H](C(N)=O)NC(=O)[C@H](Cc2c[nH]c3ccccc23)NC(=O)[C@H](CCCNC(=N)N)NC(=O)[C@@H](Cc2ccccc2)NC(=O)[C@H](CC(N)=O)NC(=O)[C@@H](C)NC1=O) [Compound 9: Ac-Arg-cyclo[Cys-D-Ala-Asn-D-Phe-Arg-Trp-Cys]-NH2]"
  ENDPOINT UNIT: "nM"
  NUMERIC VALUE: 248
- BINDER: "Ac-RC[dA]Q[dF]RWC-NH2 (disulfide 2-8; SMILES CC(=O)N[C@@H](CCCNC(=N)N)C(=O)N[C@H]1CSSC[C@@H](C(N)=O)NC(=O)[C@H](Cc2c[nH]c3ccccc23)NC(=O)[C@H](CCCNC(=N)N)NC(=O)[C@@H](Cc2ccccc2)NC(=O)[C@H](CCC(N)=O)NC(=O)[C@@H](C)NC1=O) [Compound 8: Ac-Arg-cyclo[Cys-D-Ala-Gln-D-Phe-Arg-Trp-Cys]-NH2]"
  ENDPOINT UNIT: "nM"
  NUMERIC VALUE: 71
- BINDER: "Ac-RC[dTle]H[dF]RWC-NH2 (disulfide 2-8) [Compound 3: Ac-Arg-cyclo[Cys-D-Tle-His-D-Phe-Arg-Trp-Cys]-NH2]"
  ENDPOINT UNIT: "nM"
  NUMERIC VALUE: 1

We now examine a further binder.
[ask] Given Ac-RC[dL]H[dF]RWC-NH2 (disulfide 2-8) [Compound 1: Ac-Arg-cyclo[Cys-D-Leu-His-D-Phe-Arg-Trp-Cys]-NH2] , state its recorded cAMP Assay (EC-50).
[reply] 0.47

Sourced from patent US20160022764A1
